# maps each entry to its Kd
Target: T1, recombinant LILRA3 (human, UniProt Q8N6C8 24-439)
T1 construct: whole entry named; also called LILRA3 ECD; LILA3
T1 sequence (Q8N6C8 24-439 limits assumed): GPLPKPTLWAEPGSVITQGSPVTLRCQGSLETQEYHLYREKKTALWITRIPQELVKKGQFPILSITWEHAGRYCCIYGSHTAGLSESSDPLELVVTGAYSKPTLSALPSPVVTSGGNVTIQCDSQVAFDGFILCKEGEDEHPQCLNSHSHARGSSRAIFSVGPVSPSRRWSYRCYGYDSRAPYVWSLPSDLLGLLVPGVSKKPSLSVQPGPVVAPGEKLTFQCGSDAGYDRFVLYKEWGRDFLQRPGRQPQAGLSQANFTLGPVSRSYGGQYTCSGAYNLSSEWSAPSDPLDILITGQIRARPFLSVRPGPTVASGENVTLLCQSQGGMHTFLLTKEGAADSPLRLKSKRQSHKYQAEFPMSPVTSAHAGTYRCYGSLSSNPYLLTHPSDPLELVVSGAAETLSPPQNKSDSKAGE
Assay: BLI, IgG on AHC sensor, ECD in solution
Protocol: Briefly, IgGs were captured on anti-human capture (AHC) biosensors (Sartorius). […] Subsequently, the sensors were dipped into 1× Kinetics Buffer to measure the dissociation over 420 s. All sensorgrams were double referenced against 1× Kinetics Buffer and unloaded […] sensors to subtract sensor drifts and potential reference binding of the analytes. The affinities were determined by applying a 1:1 binding model.
Kindly provide the numeric value in nM only, without the unit symbol.

Worked examples, 4 binders total:
| binder | Kd (nM) |
| --- | --- |
| A-032 (antibody, V domains shown, tested as IgG) VH: QVQLVQSGAEVKKPGSSVKVSCKASGGTFQSYAFSWVRQAPGQGLEWMGGIVPQYSTAVYAQKFQGRVTITADESTSTAYMELSSLRSEDTAVYYCAKGPPVGSSSWYTDWYFDLWGRGTLVTVSS VL: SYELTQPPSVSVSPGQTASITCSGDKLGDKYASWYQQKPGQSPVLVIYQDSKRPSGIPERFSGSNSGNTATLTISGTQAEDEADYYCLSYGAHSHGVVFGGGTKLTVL | 253 |
| A-024 (antibody, V domains shown, tested as IgG) VH: QVQLVQSGAEVKKPGSSVKVSCKASGYTFTGSAMSWVRQAPGQGLEWMGGILPIFGTSVYAQKFQGRVTITADESTSTAYMELSSLRSEDTAVYYCAKGPPVGSSSWYTDWYFDLWGRGTLVTVSS VL: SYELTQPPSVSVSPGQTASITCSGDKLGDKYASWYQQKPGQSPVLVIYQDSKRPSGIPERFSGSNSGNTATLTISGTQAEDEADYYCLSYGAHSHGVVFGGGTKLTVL | 64.8 |
| A-009 (antibody, V domains shown, tested as IgG) VH: QVQLVQSGAEVKKPGSSVKVSCKASGGTFSVTAILWVRQAPGQGLEWMGGIIPSFTSANYASKFQGRVTITADESTSTAYMELSSLRSEDTAVYYCAKDLGTYSSGWPYYYGMDVWGQGTTVTVSS VL: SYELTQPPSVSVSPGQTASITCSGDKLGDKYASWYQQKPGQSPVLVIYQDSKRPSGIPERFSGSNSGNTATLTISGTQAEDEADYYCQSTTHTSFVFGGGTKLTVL | 92.8 |
| A-029 (antibody, V domains shown, tested as IgG) VH: QVQLVQSGAEVKKPGSSVKVSCKASGYTFSIYAMSWVRQAPGQGLEWMGGIIPSFRTAVYAQKFQGRVTITADESTSTAYMELSSLRSEDTAVYYCAKGPPVGSSSWYTDWYFDLWGRGTLVTVSS VL: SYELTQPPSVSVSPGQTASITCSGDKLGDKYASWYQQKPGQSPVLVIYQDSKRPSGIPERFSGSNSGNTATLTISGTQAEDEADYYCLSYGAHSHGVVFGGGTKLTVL | 123 |

Need Kd, item A-028 (antibody, V domains shown, tested as IgG) VH: QVQLVQSGAEVKKPGSSVKVSCKASGYSFSEHAMSWVRQAPGQGLEWMGGIIPKFSTSVFAQKFQGRVTITADESTSTAYMELSSLRSEDTAVYYCAKGPPVGSSSWYTDWYFDLWGRGTLVTVSS VL: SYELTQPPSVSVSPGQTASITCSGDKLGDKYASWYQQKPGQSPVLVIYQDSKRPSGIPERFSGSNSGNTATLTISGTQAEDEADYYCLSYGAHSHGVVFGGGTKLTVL
187
